# target or system: Aurora kinase B (Homo sapiens)
# Sequence (Q96GD4 whole entry): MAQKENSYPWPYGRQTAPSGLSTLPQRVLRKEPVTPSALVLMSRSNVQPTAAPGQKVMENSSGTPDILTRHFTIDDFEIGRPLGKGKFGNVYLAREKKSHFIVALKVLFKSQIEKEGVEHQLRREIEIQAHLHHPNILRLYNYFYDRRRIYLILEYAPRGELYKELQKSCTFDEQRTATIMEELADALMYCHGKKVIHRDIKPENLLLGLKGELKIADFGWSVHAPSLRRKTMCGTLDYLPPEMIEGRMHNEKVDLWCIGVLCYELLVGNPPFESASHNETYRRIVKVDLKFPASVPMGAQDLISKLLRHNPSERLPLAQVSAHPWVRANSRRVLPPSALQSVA
# assay summary: Binding affinity to human AURKB assessed as displacement of immobilized ligand by KINOMEscan scanMAX assay relative to control
measurement label: Kd (nM)
Kindly answer with a numeric value in nM, unit omitted.

Request: Please report the recorded Kd for O=C(O)CSc1ncnc2cc(-c3cc4ccccc4s3)sc12 .
Result: 110

* * *

Listing of entries alongside the reported log10 of IC50.
# target or system: Serine/threonine-protein kinase 17B (Homo sapiens, UniProt O94768)
# Sequence (O94768 whole entry, the tested form may be a part): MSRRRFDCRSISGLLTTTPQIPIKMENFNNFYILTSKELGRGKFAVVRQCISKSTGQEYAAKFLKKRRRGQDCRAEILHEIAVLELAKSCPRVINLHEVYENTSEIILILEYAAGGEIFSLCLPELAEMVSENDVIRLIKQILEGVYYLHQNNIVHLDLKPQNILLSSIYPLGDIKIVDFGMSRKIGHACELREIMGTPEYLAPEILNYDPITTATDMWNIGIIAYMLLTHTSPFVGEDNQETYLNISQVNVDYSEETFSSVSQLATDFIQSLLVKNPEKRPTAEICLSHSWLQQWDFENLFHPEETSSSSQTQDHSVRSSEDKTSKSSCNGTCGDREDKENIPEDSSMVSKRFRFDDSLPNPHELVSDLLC
# assay summary: Inhibition of N-terminal His-tagged STK17B kinase domain (25 to 329 residues) (unknown origin) expressed in Escherichia coli incubated for 90 mins by Kinase seeker split luciferase assay
Answers are given as log10 of IC50 in nM.

Worked set:
In [3]: df
Out[3]:
                                   compound                          target_or_system  measured
0     O=C(O)CSc1ncnc2cc(-c3cc4ccccc4s3)sc12  Serine/threonine-protein kinase 17B (Homo sapiens, UniProt O94768)      1.53
1  CC(=O)Nc1cccc(-c2cc3ncnc(SCC(=O)O)c3s2)c1  Serine/threonine-protein kinase 17B (Homo sapiens, UniProt O94768)      1.54
2  CC(=O)c1ccc(-c2cc3ncnc(SCC(=O)O)c3s2)cn1  Serine/threonine-protein kinase 17B (Homo sapiens, UniProt O94768)      1.57
3     C=Cc1ccc(-c2cc3ncnc(SCC(=O)O)c3s2)cc1  Serine/threonine-protein kinase 17B (Homo sapiens, UniProt O94768)      1.45
4       O=C(O)CSc1ncnc2cc(-c3cccc(F)c3)sc12  Serine/threonine-protein kinase 17B (Homo sapiens, UniProt O94768)      1.69
5  O=C(O)CSc1ncnc2cc(-c3ccc(N4CCOCC4)cc3)sc12  Serine/threonine-protein kinase 17B (Homo sapiens, UniProt O94768)      1.15

Request: Can you look up the measured log10 of IC50 of O=C(O)CSc1ncnc2cc(-c3ccc(OCc4ccccc4)cc3)sc12 for me?
Result: 2.04

Request: Repeat with O=C(O)CSc1ncnc2cc(-c3cccc(N4CCOCC4)c3)sc12
Result: 1.92

Request: Next: CC(=O)Nc1ccc(-c2cc3ncnc(SCC(=O)O)c3s2)cc1
Result: 1.36

Request: One more compound: O=C(O)CSc1ncnc2cc(-c3cccc(OC(F)(F)F)c3)sc12
Result: 2.45

Request: Check O=C(O)CSc1ncnc2cc(-c3ccc(C4CC4)cc3)sc12 too.
Result: 1.79

Request: Repeat for the following compound: COc1ccccc1-c1cc2c(SCC(=O)O)ncnc2s1
Result: 2.94

Request: Check CC(C)Sc1ccc(-c2cc3ncnc(SCC(=O)O)c3s2)cc1 too.
Result: 1.69

Request: Consider next the compound CSc1cccc(-c2cc3ncnc(SCC(=O)O)c3s2)c1 in the same way.
Result: 1.69

Request: Next entry: COc1ccc(-c2cc3ncnc(SCC(=O)O)c3s2)cc1F
Result: 1.26

Request: Now the compound CSc1ccc(-c2cc3ncnc(SCC(=O)O)c3s2)cc1F
Result: 1.43

Request: Another compound: CC(=O)c1ccc(-c2cc3ncnc(SCC(=O)O)c3s2)cc1
Result: 1.11
